Sourced from the supplement of paper PMC11451515

# System: SEM cells
# method: cell viability relative to DMSO control; higher = less cytotoxic
# setup.conditions: RPMI 5 mM glucose + 10% FBS; 48 h; 0.00702 µM
readout.kind: cell viability (%)
Express your answer in %, writing the number without its unit.

Check out these entries, answers already filled in.
[[record]]
compound = "NC12CC3CC(CC(C3)C1)C2"
value_measured = 70.6

[[record]]
compound = "CN(C)c1ccc(C(=O)NCCCCCCC(=O)NO)cc1"
value_measured = 94.6

[[record]]
compound = "CC1(C)O[C@H]2CC(=O)OC[C@]23[C@H]2CC[C@@]4(C)[C@H](c5ccoc5)OC(=O)[C@H]5O[C@]54[C@]2(C)C(=O)C[C@@H]13"
value_measured = 98.4

[[record]]
compound = "COC(=O)N[C@H](C(=O)N[C@@H](Cc1ccccc1)[C@@H](O)CN(Cc1ccc(-c2ccccn2)cc1)NC(=O)[C@@H](NC(=O)OC)C(C)(C)C)C(C)(C)C"
value_measured = 152

[[record]]
compound = "O=C1c2cccc(O)c2C(=O)c2c(O)cc(CO)cc21"
value_measured = 99.9

[[record]]
compound = "CCN(CC)CCOC1=CC=C(NC2=NC=C3\\C=C(/C(=O)N(C)C3=N2)C4=C(Cl)C=CC=C4Cl)C=C1"
value_measured = 74.7

[[record]]
compound = "N#Cc1c(C2CCNCC2)cc(-c2c(O)cccc2OCC2CC2)nc1N"
value_measured = 106

[[record]]
compound = "COc1cc2nc(-c3ccc(N4CCN(C)CC4)cc3)nc(NCCN3CCOCC3)c2cc1OC"
value_measured = 91

[[record]]
compound = "O=P(O)(O)C(O)(Cc1cccnc1)P(=O)(O)[O][Na] (stereo not drawn)"
value_measured = 91

[[record]]
compound = "COc1ccc2cc(-c3[nH]c(-c4ccc([S+](C)[O-])cc4)nc3-c3ccncc3)ccc2c1 (stereo not drawn)"
value_measured = 96.3


*Q* For the compound CN1[C@@H]2CC(O)C[C@H]1[C@@H]1O[C@@H]12 (stereo partly drawn) , give its reported cell viability.
*A* 114

*Q* Identify the reported cell viability for the following entry. CC1=C(C)C2=C(S1)[N]3C(=NN=C3[C@H](CC(=O)OC(C)(C)C)/N=C2/C4=CC=C(Cl)C=C4)C
*A* 106

*Q* Return cell viability (reported value) for this compound: CCCCCCCCCCCCCCCC(=O)OC[C@@H](NC(=O)C(Cl)Cl)[C@H](O)c1ccc([N+](=O)[O-])cc1
*A* 132

*Q* // Input: NC/1=N/C(=O)N(/C=C1)[C@H]2CC[C@@H](CO)O2 . Output its cell viability only.
*A* 103

*Q* Respond only with cell viability recorded for Nc1cccc(-c2cc3c(Oc4cccc(O)c4)ncnc3[nH]2)c1
*A* 132

*Q* Give reported cell viability value for c1cc(-c2sc(-c3ccncc3)c(-c3ccncc3)c2-c2ccncc2)ccn1
*A* 93.9

*Q* Please indicate cell viability recorded for CC(C)(O)CNc1nc(Nc2ccnc(C(F)(F)F)c2)nc(-c2cccc(C(F)(F)F)n2)n1
*A* 119

*Q* Report cell viability, nothing else, for this compound: CCCCc1oc2ccc(NS(C)(=O)=O)cc2c1C(=O)c1ccc(OCCCN(CCCC)CCCC)cc1
*A* 98.2
